test system: NCI-H322M lung; test: NCI-60 one-dose screen, 48 h (100 = growth as untreated, 0 = no growth, -100 = all killed); settings: 10 µM unless noted
The panel holds about 83,000 compounds, 20% with a hit somewhere; the sample as a whole holds those more often.

compound: O=c1[nH]c(-c2ccccn2)nc2sc3c(c12)CCCCCC3
growth, %: 46.8
//
compound: CC(C)(C)[Si](C)(C)OC1[C@@H](COC(N)=O)O[C@@H](n2cnc3c(N)ncnc32)[C@H]1O[Si](C)(C)C(C)(C)C (stereo not given in full)
growth, %: 114
//
compound: N#C/C(=C\c1ccc[nH]1)c1cc2ccccc2[nH]1
growth, %: 87.5
//
compound: COc1ccc(/C=C/C(=O)N2CCC(O)CC2)cc1OC1CCCC1
growth, %: 108
//
compound: CCCCCCCCCCCCCCCC[N+]1(C)CCOCC1
growth, %: 37.1
